target: Pro-neuregulin-1, membrane-bound isoform (Homo sapiens) (UniProt Q02297); test: NRG1 binders on small-molecule microarrays, primary screen, psychiatric disease protein project, biochemical, small-molecule microarray, fluorescence 635/667 (AID 1075); settings: NRG1 binding, 635 nm fluorescence, higher = more signal;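 note: score combines 667 nm spot fluorescence with signal to noise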
Sequence (Q02297 whole entry, looked up, canonical isoform): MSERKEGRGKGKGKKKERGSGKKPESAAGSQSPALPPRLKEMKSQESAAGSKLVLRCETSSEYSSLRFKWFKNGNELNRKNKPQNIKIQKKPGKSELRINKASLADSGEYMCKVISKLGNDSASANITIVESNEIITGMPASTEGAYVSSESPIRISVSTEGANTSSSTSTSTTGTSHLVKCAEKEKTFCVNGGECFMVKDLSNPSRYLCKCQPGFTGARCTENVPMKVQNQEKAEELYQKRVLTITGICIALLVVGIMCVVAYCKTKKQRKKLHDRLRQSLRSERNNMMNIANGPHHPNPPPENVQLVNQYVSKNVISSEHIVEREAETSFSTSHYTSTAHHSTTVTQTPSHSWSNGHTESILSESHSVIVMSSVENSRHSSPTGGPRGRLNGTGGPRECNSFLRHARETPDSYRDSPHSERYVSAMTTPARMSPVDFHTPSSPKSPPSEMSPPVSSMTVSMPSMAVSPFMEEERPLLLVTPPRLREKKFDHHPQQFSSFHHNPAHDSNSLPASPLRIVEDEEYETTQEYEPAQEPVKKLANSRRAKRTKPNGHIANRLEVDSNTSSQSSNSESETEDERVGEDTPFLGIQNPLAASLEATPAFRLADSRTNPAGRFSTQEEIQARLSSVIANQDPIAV
Please go through the items and note down their composite z-score.
One number for each entry.

Incoming: Consider the compound shown here: COC(=O)C1=C(C)N(Cc2ccccc2)c2c(C(=O)OC)c(C(=O)OC)c(C(=O)OC)c(=O)n2[C@@H]1c1ccccc1 What is its recorded composite z-score?
Outgoing: 0.289

Please go through the list and note composite z-score for each compound.
1. O=C1C2C=CC(C(O)C#Cc3ccccc3)N(Nc3ccccc3)C2C(=O)N1c1ccccc1 (configuration not stated)
2. Cc1ccc(N2C(=O)c3ccccc3[C@@H](C(=O)NCC(F)(F)F)[C@@H]2c2ccc(CO)cc2)nc1
3. COCCOC(=O)N1C(=O)[C@@]2(c3cc(C#CCCO)ccc31)[C@H](C(=O)N1CCCCCCC1)[C@H]1C(=O)O[C@H](c3ccccc3)[C@H](c3ccccc3)N1[C@@H]2c1ccc(O)cc1
4. COc1cccc([C@@H]2[C@@H](C)CC[C@H]3C(=O)N(C)[C@@H](C(C)C)C(=O)N23)c1
5. C#CCCCON=C1C[C@@H](O)[C@@H](O)[C@@H]2[C@@H]3C(=O)N(Cc4ccc5c(c4)OCO5)C(=O)[C@@H]3CC[C@@H]12
6. CC(C)CNC(=O)[C@@]1(C)c2ccccc2C(=O)N(Cc2ccc(OC(F)(F)F)cc2)[C@H]1c1ccc(CO)cc1

Outgoing:
1.74
1.15
1.17
0.0253
0.166
-0.81

====

Please go through the items and note down their composite z-score.
target: Pro-neuregulin-1, membrane-bound isoform (Homo sapiens) (UniProt Q02297); assay: NRG1 binders on small-molecule microarrays, primary screen, psychiatric disease protein project, biochemical, small-molecule microarray, fluorescence 635/667 (AID 1075); conditions: NRG1 binding, 635 nm fluorescence, higher = more signal;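 note: score combines 667 nm spot fluorescence with signal to noise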
One number for each entry.

Examples with answers:
Incoming: Consider the compound shown here: COC(=O)[C@@]1(Cc2ccc(OC)cc2)[C@H]2c3cc(C(=O)N(C)C)n(CCc4ccc(OC)c(Br)c4)c3C[C@H]2CN1C(=O)c1ccccc1 What is its recorded composite z-score?
Outgoing: 1.77

Incoming: Consider the compound shown here: C=CCN1C(=O)[C@@]2(O[C@@H](CCn3cc([C@H](O)c4ccccc4)nn3)[C@H]([Si](C)(C)c3ccc(OC)cc3)[C@H]2C)c2cc(N3CCOC3=O)ccc21 What is its recorded composite z-score?
Outgoing: -0.344

Incoming: Consider the compound shown here: COc1cc([C@@H]2N[C@H](C(=O)O)Cc3c2[nH]c2ccccc32)cc(OC)c1OC What is its recorded composite z-score?
Outgoing: 0.0318

Others:
Incoming: Consider the compound shown here: CC(C)[Si]1(C(C)C)OCc2cc(C3CC3)nc(-c3ccccc3)c21 What is its recorded composite z-score?
Outgoing: -0.291

====

assay: small-molecule microarray binders of probe aNog, primary screen, biochemical, biotinylated probe, 635/667 nm fluorescence (AID 1115); details: higher = more signal;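 note: probe is biotinylated aNog protein used at 0.15 µg/mL for 1 h at 4 C; z-score combines 667 nm fluorescence of each spot with its signal to noise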
Class MET: composite z-score at least -0.008. Class NOT MET: composite z-score below -0.008.

Incoming: Dear colleague, could you confirm whether CC(=O)NCCCC[C@@H]1NC(=O)[C@H]2C[C@@H](C(=O)NCCCCCCN(C)C)[C@@H](c3cccc(OCCO)c3)N2C1=O has composite z-score at or above -0.008?
Outgoing: NOT MET

Incoming: Dear colleague, could you confirm whether O=C1O[C@H](c2ccccc2)[C@H](c2ccccc2)N2[C@H]1[C@@H](C(=O)NC[C@H](O)c1ccccc1)[C@]1(C(=O)Nc3ccc(C#CC4(O)CCCCCC4)cc31)[C@H]2c1ccc(OCCO)cc1 has composite z-score at or above -0.008?
Outgoing: MET

Incoming: Dear colleague, could you confirm whether C=CC[C@]1(C(N)=O)N=C(c2ccc(OCCCO)cc2)O[C@H]1c1ccccc1CN=[N+]=[N-] has composite z-score at or above -0.008?
Outgoing: MET

Incoming: Dear colleague, could you confirm whether COc1cc2c(cc1OC)CN(C(=O)[C@@H]1[C@H]3C(=O)O[C@H](c4ccccc4)[C@H](c4ccccc4)N3[C@H](c3ccccc3OCCO)[C@@]13C(=O)Nc1ccccc13)CC2 has composite z-score at or above -0.008?
Outgoing: MET

Incoming: Dear colleague, could you confirm whether CC(C)[Si]1(C(C)C)O[C@@H](c2ccccc2)c2cc(C3CC3)nc(-c3ccc(Oc4ccccc4)cc3)c21 has composite z-score at or above -0.008?
Outgoing: NOT MET

# ---- query compound ----
Incoming: Dear colleague, could you confirm whether COc1ccc(CCNC(=O)[C@@]2(c3ccc([N+](=O)[O-])cc3)CC(=O)N(C(C)C)[C@@H]2c2ccc(CO)cc2)cc1 has composite z-score at or above -0.008?
Outgoing: MET
